# inhibition at 10 µM annotations
# Subject Of Test: CDK13/Cyclin K (Homo sapiens, UniProt Q14004)
# Sequence (O75909 whole entry): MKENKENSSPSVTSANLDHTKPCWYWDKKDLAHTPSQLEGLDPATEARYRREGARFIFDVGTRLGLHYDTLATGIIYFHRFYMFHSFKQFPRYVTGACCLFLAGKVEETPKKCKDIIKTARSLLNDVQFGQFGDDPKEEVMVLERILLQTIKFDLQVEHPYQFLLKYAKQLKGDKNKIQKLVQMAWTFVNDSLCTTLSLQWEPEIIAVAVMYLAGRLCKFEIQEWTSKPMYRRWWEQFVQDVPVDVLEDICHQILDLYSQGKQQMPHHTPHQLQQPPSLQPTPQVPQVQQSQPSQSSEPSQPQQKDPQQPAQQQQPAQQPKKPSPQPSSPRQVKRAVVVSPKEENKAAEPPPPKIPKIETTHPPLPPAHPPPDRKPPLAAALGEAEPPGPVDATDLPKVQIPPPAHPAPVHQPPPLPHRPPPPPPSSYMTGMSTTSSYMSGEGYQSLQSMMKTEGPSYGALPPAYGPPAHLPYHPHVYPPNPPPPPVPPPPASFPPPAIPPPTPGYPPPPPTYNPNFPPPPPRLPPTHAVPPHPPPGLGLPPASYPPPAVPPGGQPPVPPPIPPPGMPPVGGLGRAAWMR
# Sequence (Q14004 other isoform, or with tags, fused parts or gaps): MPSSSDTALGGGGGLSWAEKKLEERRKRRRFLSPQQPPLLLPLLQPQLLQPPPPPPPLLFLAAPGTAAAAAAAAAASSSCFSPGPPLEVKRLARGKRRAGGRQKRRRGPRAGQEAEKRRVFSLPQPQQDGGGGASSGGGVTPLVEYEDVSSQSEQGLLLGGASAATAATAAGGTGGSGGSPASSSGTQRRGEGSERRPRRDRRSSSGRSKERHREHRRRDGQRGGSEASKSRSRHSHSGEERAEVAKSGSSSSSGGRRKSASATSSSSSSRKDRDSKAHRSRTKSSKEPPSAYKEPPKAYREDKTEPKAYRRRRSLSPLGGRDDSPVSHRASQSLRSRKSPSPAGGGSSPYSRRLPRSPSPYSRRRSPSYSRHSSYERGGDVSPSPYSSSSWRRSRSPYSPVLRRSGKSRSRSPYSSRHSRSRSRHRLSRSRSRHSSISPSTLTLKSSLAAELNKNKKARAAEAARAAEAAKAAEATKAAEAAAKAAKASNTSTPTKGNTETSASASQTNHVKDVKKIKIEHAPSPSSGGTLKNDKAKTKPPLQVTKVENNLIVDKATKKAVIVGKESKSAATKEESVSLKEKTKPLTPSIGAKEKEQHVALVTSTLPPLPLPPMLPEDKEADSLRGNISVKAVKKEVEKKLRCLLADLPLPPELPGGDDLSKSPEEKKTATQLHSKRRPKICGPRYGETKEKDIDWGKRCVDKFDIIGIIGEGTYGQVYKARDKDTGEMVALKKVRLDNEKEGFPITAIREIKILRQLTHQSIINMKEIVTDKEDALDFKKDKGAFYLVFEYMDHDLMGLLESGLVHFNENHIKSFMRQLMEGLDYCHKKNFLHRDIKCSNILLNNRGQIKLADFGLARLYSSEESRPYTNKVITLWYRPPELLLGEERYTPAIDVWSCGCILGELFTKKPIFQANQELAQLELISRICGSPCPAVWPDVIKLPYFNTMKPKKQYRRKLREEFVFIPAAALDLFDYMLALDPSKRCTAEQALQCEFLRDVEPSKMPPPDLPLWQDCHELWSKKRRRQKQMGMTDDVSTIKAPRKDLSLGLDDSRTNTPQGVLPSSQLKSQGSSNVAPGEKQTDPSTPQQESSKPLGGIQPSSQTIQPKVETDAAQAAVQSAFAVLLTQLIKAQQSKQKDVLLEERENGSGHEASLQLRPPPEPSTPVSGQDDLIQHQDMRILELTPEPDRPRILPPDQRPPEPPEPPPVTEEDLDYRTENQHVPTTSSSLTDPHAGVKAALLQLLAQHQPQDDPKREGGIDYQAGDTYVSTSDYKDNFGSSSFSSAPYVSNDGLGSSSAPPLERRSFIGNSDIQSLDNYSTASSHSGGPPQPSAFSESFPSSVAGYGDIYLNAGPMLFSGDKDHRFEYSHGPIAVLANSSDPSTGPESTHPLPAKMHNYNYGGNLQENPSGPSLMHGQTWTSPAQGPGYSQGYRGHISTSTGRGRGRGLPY
# Test: NanoBRET live-cell target engagement, CDK13-NanoLuc/Cyclin K in HEK-293
# Type: binding
# Measurement Conditions: CDK13/K; average; read-out: Inhibition at 10µM (%)
Readout Type: inhibition at 10 µM (%)

> print(dat)
                                    compound  data.value
 1  CC(C)c1cnn2c(NCc3ccccc3)cc(NC[C@H]3CCNC[C@@H]3O)nc12        34.1
 2  COc1ccccc1-c1cc(Nc2cccc(CS(N)(=O)=O)c2)ncn1        10.2
 3  COC1CN(C(=O)c2ccc3c(N)ncc(-c4ccc(-c5cnn(C)c5)cc4)c3n2)C1         6.6
 4  CN1CCN(c2ccc(Nc3ncc4cc(C#N)c(=O)n(C5CCCC5)c4n3)cc2)CC1       -15.1
 5  CN1CCN(Cc2ccc(NC(=O)Nc3ccc(Oc4ccnc(N)n4)cc3)cc2C(F)(F)F)CC1        36.6
 6  Cn1cc(-c2ccc(-c3cncc(Cl)c3N3CCC4(CCNC4=O)CC3)cc2)cn1         7.2
 7  CNC(=O)c1nn(C)c2c1C(C)(C)Cc1cnc(Nc3ccc(N4CCN(C)CC4)cc3)nc1-2        13.7
 8  N#CCNC(=O)c1ccc(-c2ccnc(Nc3ccc(N4CCOCC4)cc3)n2)cc1         3.2
 9  CC(C)N1CCN(c2ccc(Nc3ncc4cc5n(c4n3)C3(CCCCC3)CNC5=O)nc2)CC1      -0.247
10  COc1ccc(F)cc1-c1cc(NC(=O)C2CCCNC2)ncc1Cl (stereo not shown)        41.2
11  NS(=O)(=O)c1ccc(Nc2nc(OCC3CCCCC3)c3nc[nH]c3n2)cc1        18.1
12  CC(C)(C)c1nc(-c2cccc(NS(=O)(=O)c3c(F)cccc3F)c2F)c(-c2ccnc(N)n2)s1        10.9
13  CN1CC[C@H](c2c(O)cc(O)c3c(=O)cc(-c4ccccc4Cl)oc23)[C@H](O)C1          28

====

# Subject Of Test: CDK1/Cyclin E1 (Homo sapiens, UniProt P06493)
# Test: NanoBRET live-cell target engagement, CDK1-NanoLuc/Cyclin E1 in HEK-293
# Assay type: binding
# Measurement Conditions: CDK1/E1; average (± SEM where n=3); read-out: IC50
// reported IC50 for each item listed
Readout Type: IC50 (nM)

> print(dat)
                                   compound  readout.type  data.value
1  CCn1cnc2c(Nc3cccc(Cl)c3)nc(N[C@@H]3CCCC[C@@H]3N)nc21 [CGP74514A]          IC50         130
2  CS(=O)(=O)N1CCC(NC(=O)c2[nH]ncc2NC(=O)c2c(Cl)cccc2Cl)CC1          IC50          83
3  CC(C)c1cnn2c(NCc3ccccc3-n3cccn3)nc(OC3CCCNC3)nc12 (stereo not drawn)          IC50          70

====

# Subject Of Test: CDK3/Cyclin E1 (Homo sapiens, UniProt Q00526)
# Sequence (Q00526 whole entry): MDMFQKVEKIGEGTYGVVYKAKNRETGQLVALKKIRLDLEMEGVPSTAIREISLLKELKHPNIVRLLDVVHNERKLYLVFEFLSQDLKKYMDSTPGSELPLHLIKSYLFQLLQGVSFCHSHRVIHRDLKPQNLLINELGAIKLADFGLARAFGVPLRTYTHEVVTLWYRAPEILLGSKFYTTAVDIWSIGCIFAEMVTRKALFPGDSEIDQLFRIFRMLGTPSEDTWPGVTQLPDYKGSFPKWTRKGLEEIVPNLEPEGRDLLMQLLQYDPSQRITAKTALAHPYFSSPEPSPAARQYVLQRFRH
# Sequence (P24864 whole entry partner): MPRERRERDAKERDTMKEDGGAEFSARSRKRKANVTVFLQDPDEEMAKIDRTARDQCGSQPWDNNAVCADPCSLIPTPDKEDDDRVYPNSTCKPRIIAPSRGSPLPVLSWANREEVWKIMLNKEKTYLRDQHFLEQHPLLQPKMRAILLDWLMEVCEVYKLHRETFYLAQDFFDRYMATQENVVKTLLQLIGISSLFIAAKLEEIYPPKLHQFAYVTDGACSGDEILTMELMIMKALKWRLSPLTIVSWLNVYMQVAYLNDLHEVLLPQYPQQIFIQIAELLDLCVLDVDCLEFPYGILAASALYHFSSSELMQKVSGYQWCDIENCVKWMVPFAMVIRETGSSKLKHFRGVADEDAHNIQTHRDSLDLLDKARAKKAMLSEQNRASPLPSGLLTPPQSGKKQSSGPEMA
# Test: NanoBRET live-cell target engagement, CDK3-NanoLuc/Cyclin E1 in HEK-293
# Assay type: binding
# Measurement Conditions: CDK3/E1; 10µM; read-out: Inhibition at 10µM (%) Replicate 1
Readout Type: inhibition at 10 µM (%)

> print(dat)
                                   molecule  data.value
1  CC(C)c1cnn2c(NCc3ccccc3)cc(NCCCCCCN)nc12 [BS-181]        56.9
2  COc1cc(F)ccc1-c1ncnc(Nc2cccc(C[S@](C)(=N)=O)c2)n1 [Atuveciclib]        47.3
3  CCN1CCN(Cc2ccc(Nc3ncc(F)c(-c4cc(F)c5nc(C)n(C(C)C)c5c4)n3)nc2)CC1 [Abemaciclib]        62.2
4  CCCCOc1c(C(=O)c2c(F)cc(C)cc2F)c[nH]c2nncc1-2 [BMS-265246]        81.9
5  CCN1CCN(Cc2ccc(NC(=O)Nc3ccc(Oc4cc(NC)ncn4)cc3)cc2C(F)(F)F)CC1 [AST-487]          58
6  COc1cc(F)ccc1-c1cc(Nc2cc(CS(C)(=N)=O)ccn2)ncc1F (stereo not drawn) [BAY-1251152]        75.8

====

# Subject Of Test: CDK8/Cyclin C (Homo sapiens)
# Sequence (P49336 whole entry): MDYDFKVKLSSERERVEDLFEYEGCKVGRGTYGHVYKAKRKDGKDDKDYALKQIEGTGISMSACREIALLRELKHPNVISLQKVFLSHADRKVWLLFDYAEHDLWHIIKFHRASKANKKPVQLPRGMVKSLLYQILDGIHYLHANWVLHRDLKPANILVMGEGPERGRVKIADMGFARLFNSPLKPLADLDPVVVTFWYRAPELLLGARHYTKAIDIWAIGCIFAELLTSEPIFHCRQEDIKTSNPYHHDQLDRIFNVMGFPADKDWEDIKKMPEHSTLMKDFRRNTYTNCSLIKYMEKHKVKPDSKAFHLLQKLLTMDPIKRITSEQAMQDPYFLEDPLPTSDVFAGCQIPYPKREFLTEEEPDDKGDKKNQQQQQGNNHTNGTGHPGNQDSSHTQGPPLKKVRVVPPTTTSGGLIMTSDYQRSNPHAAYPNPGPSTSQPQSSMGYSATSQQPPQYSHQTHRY
# Sequence (P24863 whole entry partner): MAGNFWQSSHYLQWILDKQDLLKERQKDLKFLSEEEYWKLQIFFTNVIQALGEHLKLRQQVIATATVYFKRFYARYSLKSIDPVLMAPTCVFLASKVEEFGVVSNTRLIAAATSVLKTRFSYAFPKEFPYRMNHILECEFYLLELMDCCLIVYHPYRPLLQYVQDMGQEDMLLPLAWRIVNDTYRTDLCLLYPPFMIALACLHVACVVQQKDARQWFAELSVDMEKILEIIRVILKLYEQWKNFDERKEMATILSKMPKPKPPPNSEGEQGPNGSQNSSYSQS
# Test: NanoBRET live-cell target engagement, NanoLuc-CDK8/Cyclin C in HEK-293
# Type: binding
# Measurement Conditions: CDK8/C; 10µM; read-out: Inhibition at 10µM (%) Replicate 2
inhibition at 10 µM values by entry
Readout Type: inhibition at 10 µM (%)

> print(dat)
                                   molecule               subject.of.test         readout.type  data.value
1  COc1cc(F)ccc1-c1cc(Nc2cc(CS(C)(=N)=O)ccn2)ncc1F (centres unmarked) [BAY-1251152]  CDK8/Cyclin C (Homo sapiens)  inhibition at 10 µM         5.9
2  CCN1CCN(Cc2ccc(Nc3ncc(F)c(-c4cc(F)c5nc(C)n(C(C)C)c5c4)n3)nc2)CC1 [Abemaciclib]  CDK8/Cyclin C (Homo sapiens)  inhibition at 10 µM        44.2
3  O=C(NC1CCNCC1)c1[nH]ncc1NC(=O)c1c(Cl)cccc1Cl [AT7519]  CDK8/Cyclin C (Homo sapiens)  inhibition at 10 µM        24.8
4  CCN1CCN(Cc2ccc(NC(=O)Nc3ccc(Oc4cc(NC)ncn4)cc3)cc2C(F)(F)F)CC1 [AST-487]  CDK8/Cyclin C (Homo sapiens)  inhibition at 10 µM        95.7
5  COc1cc(F)ccc1-c1ncnc(Nc2cccc(C[S@](C)(=N)=O)c2)n1 [Atuveciclib]  CDK8/Cyclin C (Homo sapiens)  inhibition at 10 µM           7
6  CCCCOc1c(C(=O)c2c(F)cc(C)cc2F)c[nH]c2nncc1-2 [BMS-265246]  CDK8/Cyclin C (Homo sapiens)  inhibition at 10 µM        92.5
7  CC(C)c1cnn2c(NCc3ccccc3)cc(NCCCCCCN)nc12 [BS-181]  CDK8/Cyclin C (Homo sapiens)  inhibition at 10 µM       -25.4
8  C[C@H]1CC[C@H](n2c3cnccc3c3cnc(Nc4ccc5c(n4)CCN(C(=O)CO)C5)nc32)CC1 [AMG 925]  CDK8/Cyclin C (Homo sapiens)  inhibition at 10 µM        11.5

====

# Subject Of Test: CDK6/Cyclin D1 (Homo sapiens, UniProt Q00534)
# Sequence (Q00534 whole entry): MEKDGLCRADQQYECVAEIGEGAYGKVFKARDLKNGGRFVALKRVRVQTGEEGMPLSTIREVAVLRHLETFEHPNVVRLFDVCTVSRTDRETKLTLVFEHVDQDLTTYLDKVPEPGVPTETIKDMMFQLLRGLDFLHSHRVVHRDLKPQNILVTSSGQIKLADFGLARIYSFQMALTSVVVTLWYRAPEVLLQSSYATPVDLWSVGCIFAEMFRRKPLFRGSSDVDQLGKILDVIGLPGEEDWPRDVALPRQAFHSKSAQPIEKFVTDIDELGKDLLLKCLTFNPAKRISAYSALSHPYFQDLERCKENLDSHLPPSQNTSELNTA
# Sequence (P24385 whole entry partner): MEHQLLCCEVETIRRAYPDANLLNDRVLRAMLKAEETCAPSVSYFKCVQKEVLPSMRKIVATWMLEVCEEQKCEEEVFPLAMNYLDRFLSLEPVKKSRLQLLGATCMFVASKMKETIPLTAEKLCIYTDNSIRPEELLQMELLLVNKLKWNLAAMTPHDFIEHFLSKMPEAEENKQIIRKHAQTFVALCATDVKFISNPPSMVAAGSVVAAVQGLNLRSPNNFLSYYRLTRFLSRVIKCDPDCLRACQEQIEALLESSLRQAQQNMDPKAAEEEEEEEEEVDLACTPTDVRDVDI
# Test: NanoBRET live-cell target engagement, NanoLuc-CDK6/Cyclin D1 in HEK-293
# Format: binding
# Measurement Conditions: CDK6/D1; 10µM
Each entry below carries its recorded Inhibition at 10µM (%) Replicate 1.
Readout Type: Inhibition at 10µM (%) Replicate 1

> print(dat)
                                   compound                           subject.of.test  data.value
1  CNC1CCN(C(=O)c2ccc(Nc3ncc(F)c(-c4cnc(C)n4C(C)C)n3)cc2)C1 (stereo not shown)  CDK6/Cyclin D1 (Homo sapiens, UniProt Q00534)        99.7
2  O=C(Nc1c[nH]nc1-c1ccccn1)c1nn(C2CCNCC2)cc1Cl  CDK6/Cyclin D1 (Homo sapiens, UniProt Q00534)         5.5
3  CCC(CO)Nc1nc(Nc2cccc(-c3ccccn3)c2)c2ncn(C(C)C)c2n1.Cl.O [(R) - DRF053]  CDK6/Cyclin D1 (Homo sapiens, UniProt Q00534)         6.0
4  CC(C)c1cnn2c(NCc3ccccc3)cc(N[C@@H](CO)[C@H](O)CO)nc12  CDK6/Cyclin D1 (Homo sapiens, UniProt Q00534)        83.0

====

# Subject Of Test: CDK19/Cyclin C (Homo sapiens, UniProt Q9BWU1)
# Sequence (Q9BWU1 whole entry): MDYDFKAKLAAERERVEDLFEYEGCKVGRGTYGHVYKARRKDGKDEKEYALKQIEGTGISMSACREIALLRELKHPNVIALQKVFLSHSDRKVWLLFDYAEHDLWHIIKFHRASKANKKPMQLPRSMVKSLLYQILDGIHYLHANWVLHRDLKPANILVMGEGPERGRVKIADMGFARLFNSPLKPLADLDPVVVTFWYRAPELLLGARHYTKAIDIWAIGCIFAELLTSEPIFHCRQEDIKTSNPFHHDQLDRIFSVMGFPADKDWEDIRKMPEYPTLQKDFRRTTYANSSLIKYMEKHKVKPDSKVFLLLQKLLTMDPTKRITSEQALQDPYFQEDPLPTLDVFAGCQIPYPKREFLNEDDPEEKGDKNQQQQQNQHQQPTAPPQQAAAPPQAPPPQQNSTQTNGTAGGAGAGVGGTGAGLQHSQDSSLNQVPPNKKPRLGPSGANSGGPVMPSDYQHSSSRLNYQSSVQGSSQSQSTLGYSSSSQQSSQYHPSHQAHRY
# Sequence (P24863 whole entry partner): as the sequence (P24863 whole entry partner) above
# Test: NanoBRET live-cell target engagement, NanoLuc-CDK19/Cyclin C in HEK-293
# Measurement Conditions: IC50 (nM), CDK19/C; experiment 3
Readout Type: IC50 (nM)

> print(dat)
                                   compound  data.value
1  COC1CN(C(=O)c2ccc3c(N)ncc(-c4ccc(-c5cnn(C)c5)cc4)c3n2)C1 [CCT251545 analog]          17
2  CN1CCN(Cc2ccc(NC(=O)Nc3ccc(Oc4ccnc(N)n4)cc3)cc2C(F)(F)F)CC1 [K03861]         0.5
3  Cn1cc(-c2ccc(-c3cncc(Cl)c3N3CCC4(CCNC4=O)CC3)cc2)cn1 [CCT251545]          10
